The values you see were collected from patent US11702404B2.

So I've got a bunch of compounds here, and I need their pEC50 values.
# STUDY TARGET: GLP-1R (Homo sapiens, UniProt P43220)
# Sequence (P43220 24-463): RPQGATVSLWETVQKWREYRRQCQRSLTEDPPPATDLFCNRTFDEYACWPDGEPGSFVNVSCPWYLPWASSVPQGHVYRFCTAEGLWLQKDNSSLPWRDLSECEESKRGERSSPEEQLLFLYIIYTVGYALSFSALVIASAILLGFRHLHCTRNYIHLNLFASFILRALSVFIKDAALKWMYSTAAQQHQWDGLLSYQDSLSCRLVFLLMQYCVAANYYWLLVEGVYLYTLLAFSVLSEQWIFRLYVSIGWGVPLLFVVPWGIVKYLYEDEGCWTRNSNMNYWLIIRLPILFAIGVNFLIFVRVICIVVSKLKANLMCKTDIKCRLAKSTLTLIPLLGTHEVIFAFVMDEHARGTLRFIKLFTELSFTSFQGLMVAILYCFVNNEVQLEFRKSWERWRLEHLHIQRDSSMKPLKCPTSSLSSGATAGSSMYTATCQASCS
# ASSAY COMMENT: GLP-1R activation: cAMP increase in CHO cells stably expressing GLP-1R
# Assay type: cell-based
# TEST CONDITIONS: cAMP increase, CHO cells stably expressing GLP-1R, 10 point dose response, 30 minutes incubation; read-out: EC50
// field semantics: pEC50 = negative decimal log of concentration (mol/L)

Prompt line: I would be grateful if you could share the reported pEC50 for COCCn1c(Cc2ccc(-c3cc(C(=O)O)cc(OCc4ccc(C#N)cc4F)n3)cc2F)nc2ccc(C(=O)O)cc21 .
Response line: 5.56

Prompt line: Also check N#Cc1ccc(COc2cccc(-c3ccc(Cc4nc5ccc(C(=O)O)cc5n4Cc4ncco4)nc3)n2)c(F)c1
Response line: 7.50

Prompt line: Also check N#Cc1ccc(COc2nccc(-c3ccc(Cc4nc5c(F)cc(C(=O)O)cc5n4C[C@@H]4CCO4)cc3F)n2)c(F)c1
Response line: 9.89

Prompt line: Also check C[C@]1(Cn2c(Cc3ccc(-c4cccc(OCc5ccc(C#N)cc5F)n4)cc3F)nc3ccc(C(=O)O)cc32)CCO1
Response line: 8.51

Prompt line: Also check COCCn1c(Cc2ccc(-c3cccc(OCc4ccc(C(F)F)cc4F)n3)cc2F)nc2ccc(C(=O)O)cc21
Response line: 8.47

Prompt line: Also check COCCn1c(Cc2ccc(-c3cccc(OCc4ccc(C#N)cc4F)n3)cc2N)nc2ccc(C(=O)O)cc21
Response line: 7.17

Prompt line: Also check CC(C)(CF)Cn1c(Cc2ccc(-c3cccc(OCc4ccc(C#N)cc4F)n3)cc2F)nc2ccc(C(=O)O)cc21
Response line: 8.57

Prompt line: Also check N#CCC1(Cn2c(Cc3cc(F)c(-c4ccc(F)c(OCc5ccc(C#N)cc5F)n4)cc3F)nc3ccc(C(=O)O)cc32)CC1
Response line: 9.96

Prompt line: Also check CCn1c(Cc2ccc(-c3cccc(OCc4ccc(C#N)cc4F)n3)cc2F)nc2ccc(C(=O)O)cc21
Response line: 7.74

Prompt line: Also check Cn1ccnc1Cn1c(Cc2ccc(-c3cccc(OCc4ccc(C#N)cc4F)n3)cc2F)nc2ccc(C(=O)O)cc21
Response line: 6.97

Prompt line: Also check N#Cc1ccc(COc2cccc(-c3ccc(Cc4nc5ccc(C(=O)O)cc5n4C[C@H]4CCCO4)c(F)c3)n2)c(F)c1
Response line: 8.06

Prompt line: Also check COCCn1c(Cc2ccc(-c3cccc(OCc4ccc(C#CC(C)(C)O)cc4F)n3)cc2F)nc2ccc(C(=O)O)cc21
Response line: 6.78

Prompt line: Also check COCCn1c(Cc2ccc(-c3cccc(OCc4ccc(Br)c5nsnc45)n3)cc2F)nc2ccc(C(=O)O)cc21
Response line: 8.10

Prompt line: Also check COCCn1c(Cc2ccc(-c3cccc(O[C@H](C)c4ccccc4)n3)cc2F)nc2ccc(C(=O)O)cc21
Response line: 6.06

----------
So I've got a bunch of compounds here, and I need their Predicted Hepatic Clearance (Pred. Cl.) values.
# ASSAY COMMENT: Microsomal stability, human liver microsomes (predicted hepatic clearance)
# TEST CONDITIONS: predicted from in vitro microsomal stability data

Prompt line: I would be grateful if you could share the reported Predicted Hepatic Clearance (Pred. Cl.) for N#Cc1ccc(COc2cccc(-c3ccn(Cc4nc5ccc(C(=O)O)cc5n4C[C@@H]4CCO4)c(=O)c3)n2)c(F)c1 [Example 423] .
Response line: <1.83 mL/min/kg

Prompt line: Also check N#Cc1ccc(COc2cccc(-c3cc(F)c(Cc4nc5ccc(C(=O)O)cc5n4[C@@H]4CCNC4=O)cc3F)n2)c(F)c1 [Example 631]
Response line: 3 mL/min/kg

Prompt line: Also check N#Cc1cc(F)c(COc2cccc(-c3cc(F)c(Cc4nc5ccc(C(=O)O)cc5n4C[C@@H]4CCO4)cc3F)n2)cc1F [Example 798]
Response line: 5.33 mL/min/kg
